- Assay remarks: cn = amount concentration of the nth substance listed, in mol/dm3
- Assay context: 303.15 K; 101 kPa; Liquid; c1 = 0.1
Measured quantity: viscosity (mPa·s)

{"Molecule": "OC[C@@H](O)[C@@H](O)CO [meso-1,2,3,4-butanetetrol] + O", "Measured quantity": "viscosity", "Unit abbrev": "mPa·s", "Recorded number": 0.8541}
{"Molecule": "OC[C@@H](O)[C@@H](O[C@H]1O[C@H](CO)[C@@H](O)[C@H](O)[C@H]1O)[C@H](O)[C@@H](O)CO [4-O-α-D-glucopyranosyl-D-glucitol] + O", "Measured quantity": "viscosity", "Unit abbrev": "mPa·s", "Recorded number": 0.8869}
{"Molecule": "OC[C@@H](O)[C@@H](O)[C@H](O)[C@H](O)CO [mannitol] + O", "Measured quantity": "viscosity", "Unit abbrev": "mPa·s", "Recorded number": 0.8694}
{"Molecule": "OC[C@@H](O)[C@@H](O)[C@H](O)[C@@H](O)CO [D-sorbitol] + O", "Measured quantity": "viscosity", "Unit abbrev": "mPa·s", "Recorded number": 0.8619}
{"Molecule": "OC[C@@H](O)[C@H](O)[C@@H](O)CO [xylitol] + O", "Measured quantity": "viscosity", "Unit abbrev": "mPa·s", "Recorded number": 0.858}
